- system_under_test: human V1a receptor (Homo sapiens, UniProt P37288)
- Construct: expressed in transfected cells; host or cells: CHO K1 (ATCC), also stably transfected with a modified aequorin
- Sequence (P37288 whole entry): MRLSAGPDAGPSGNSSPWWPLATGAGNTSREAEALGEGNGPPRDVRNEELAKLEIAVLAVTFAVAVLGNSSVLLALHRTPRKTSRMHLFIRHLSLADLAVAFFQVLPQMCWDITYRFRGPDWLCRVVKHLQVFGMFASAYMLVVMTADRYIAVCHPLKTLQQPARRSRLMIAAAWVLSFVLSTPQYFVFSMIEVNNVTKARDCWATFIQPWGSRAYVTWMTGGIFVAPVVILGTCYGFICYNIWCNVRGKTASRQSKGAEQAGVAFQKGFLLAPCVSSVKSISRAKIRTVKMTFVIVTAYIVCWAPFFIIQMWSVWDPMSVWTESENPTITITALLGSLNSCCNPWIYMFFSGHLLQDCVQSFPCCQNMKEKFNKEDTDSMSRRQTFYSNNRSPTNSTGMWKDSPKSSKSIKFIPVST
- protocol_notes: Cellular in vitro assay for determining vasopressin receptor activity (V1a, aequorin luminescence)
- Assay type: cell-based
- assay_context: selectivity ratio IC50 hV2 / IC50 hV1a
readout_name: ratio IC50 hV2/hV1a

C[C@H](O)c1nc(Cn2nc(-c3ccc(Cl)cc3)n(C[C@H](O)C(F)(F)F)c2=O)nn1-c1ncccc1F = 4.1

[a] C[C@@H](O)c1nc(Cn2nc(-c3ccc(Cl)cc3)n(C[C@H](O)C(F)(F)F)c2=O)nn1-c1ccncc1Cl
[b] CC(O)c1nc(Cn2nc(-c3ccc(Cl)cc3)n(C[C@H](O)C(F)(F)F)c2=O)nn1-c1cccnc1 (single isomer, unassigned) [Example 26]
[c] C[C@H](O)c1nc(Cn2nc(-c3ccc(Cl)cc3)n(C[C@H](O)C(F)(F)F)c2=O)nn1-c1cccnn1
Problem: Put the molecules in ascending order of ratio IC50 hV2/hV1a. Put the labels in the order asked and list them.
Solution: c, b, a

====

- system_under_test: human V2 receptor (Homo sapiens)
- Sequence (P30518 whole entry): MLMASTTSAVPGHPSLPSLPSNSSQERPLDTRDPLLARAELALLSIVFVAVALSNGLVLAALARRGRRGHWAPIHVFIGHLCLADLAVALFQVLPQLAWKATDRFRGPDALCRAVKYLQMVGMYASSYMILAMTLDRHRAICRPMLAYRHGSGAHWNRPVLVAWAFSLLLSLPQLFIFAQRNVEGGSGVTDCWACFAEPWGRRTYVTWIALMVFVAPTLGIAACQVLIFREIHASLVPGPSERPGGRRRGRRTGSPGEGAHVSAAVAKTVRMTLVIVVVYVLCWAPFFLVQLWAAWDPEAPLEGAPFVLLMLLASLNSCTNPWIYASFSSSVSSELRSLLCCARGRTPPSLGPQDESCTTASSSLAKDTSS
- protocol_notes: Cellular in vitro assay for determining vasopressin receptor activity (V2, CRE-luciferase)
- assay_context: CHO cell line transfected with human V2 receptor; [Arg8]-vasopressin at EC50 concentration; read-out: IC50 hV2
readout_name: IC50 (nM)

# count of solved cases: 3
C[C@@H](O)c1nc(Cn2nc(-c3ccc(Cl)cc3)n(C[C@H](O)C(F)(F)F)c2=O)nn1-c1ncccc1C(F)(F)F = 170
C[C@H](O)c1nc(Cn2nc(-c3ccc(Cl)cc3)n(C[C@H](O)C(F)(F)F)c2=O)nn1-c1ccccn1 = 65.5
C[C@@H](O)c1nc(Cn2nc(-c3ccc(Cl)cc3)n(C[C@H](O)C(F)(F)F)c2=O)nn1-c1c(Cl)cncc1Cl = 8.65

[A] C[C@@H](O)c1nc(Cn2nc(-c3ccc(Cl)cc3)n(C[C@H](O)C(F)(F)F)c2=O)nn1-c1ccncc1Cl
[B] CC(O)c1nc(Cn2nc(-c3ccc(Cl)cc3)n(C[C@H](O)C(F)(F)F)c2=O)nn1-c1cccnc1 (mixture of isomers) [Example 24]
[C] C[C@@H](O)c1nc(Cn2nc(-c3ccc(Cl)cc3)n(C[C@H](O)C(F)(F)F)c2=O)nn1-c1cnccc1Cl
[D] C[C@@H](O)c1nc(Cn2nc(-c3ccc(Cl)cc3)n(C[C@H](O)C(F)(F)F)c2=O)nn1-c1ncccc1Cl
Problem: Put the compounds in ascending order of IC50. Put the labels in the order asked and list them.
Solution: C, D, A, B
(C: 16 nM, D: 27 nM, A: 40.3 nM, B: 773 nM)

[I] C[C@H](O)c1nc(Cn2nc(-c3ccc(Cl)cc3)n(C[C@H](O)C(F)(F)F)c2=O)nn1-c1c(Cl)cncc1Cl
[II] C[C@@H](O)c1nc(Cn2nc(-c3ccc(Cl)cc3)n(C[C@H](O)C(F)(F)F)c2=O)nn1-c1ccccn1
Problem: Which of the two items, I and II , has the greater recorded IC50? // caller expects the label of the chosen entry
Solution: II

[P] C[C@H](O)c1nc(Cn2nc(-c3ccc(Cl)cc3)n(C[C@H](O)C(F)(F)F)c2=O)nn1-c1ccc(Cl)cn1
[Q] CC(O)c1nc(Cn2nc(-c3ccc(Cl)cc3)n(C[C@H](O)C(F)(F)F)c2=O)nn1-c1cncc(Cl)c1 (mixture of isomers) [Example 27]
Problem: Which of the two items, P and Q , has the greater recorded IC50? // caller expects the label of the chosen entry
Solution: Q
(Q: 18.7 nM, P: 11.7 nM)

[1] COc1nccnc1-n1nc(Cn2nc(-c3ccc(Cl)cc3)n(C[C@H](O)C(F)(F)F)c2=O)nc1[C@H](C)O
[2] C[C@H](O)c1nc(Cn2nc(-c3ccc(Cl)cc3)n(C[C@H](O)C(F)(F)F)c2=O)nn1-c1ncccc1F
Problem: Kindly identify the item with the lower IC50 figure among these two: 1 and 2 // caller expects the label of the chosen entry
Solution: 2

[P] CC(O)c1nc(Cn2nc(-c3ccc(Cl)cc3)n(C[C@H](O)C(F)(F)F)c2=O)nn1-c1cccnc1 (single isomer, unassigned) [Example 26]
[Q] C[C@@H](O)c1nc(Cn2nc(-c3ccc(Cl)cc3)n(C[C@H](O)C(F)(F)F)c2=O)nn1-c1ncccc1F
Problem: Which of the two items, P and Q , has the greater recorded IC50? // caller expects the label of the chosen entry
Solution: P
(P: 325 nM, Q: 38.7 nM)

====

- system_under_test: human V1a receptor (Homo sapiens, UniProt P37288)
- protocol_notes: Cellular in vitro assay for determining vasopressin receptor activity (V1a, aequorin luminescence)
- assay_context: CHO cell line transfected with human V1a receptor; [Arg8]-vasopressin at EC50 concentration; read-out: IC50 hV1a
pIC50: −log10 of the molar value.
readout_name: pIC50

# count of solved cases: 6
C[C@H](O)c1nc(Cn2nc(-c3ccc(Cl)cc3)n(C[C@H](O)C(F)(F)F)c2=O)nn1-c1ccncc1 = 7.54
C[C@@H](O)c1nc(Cn2nc(-c3ccc(Cl)cc3)n(C[C@H](O)C(F)(F)F)c2=O)nn1-c1ccncc1Cl = 8.63
C[C@H](O)c1nc(Cn2nc(-c3ccc(Cl)cc3)n(C[C@H](O)C(F)(F)F)c2=O)nn1-c1nccs1 = 8.37
C[C@@H](O)c1nc(Cn2nc(-c3ccc(Cl)cc3)n(C[C@H](O)C(F)(F)F)c2=O)nn1-c1ncccc1Cl = 8.87
C[C@H](O)c1nc(Cn2nc(-c3ccc(Cl)cc3)n(C[C@H](O)C(F)(F)F)c2=O)nn1-c1ncccc1OC(F)(F)F = 8.24
C[C@H](O)c1nc(Cn2nc(-c3ccc(Cl)cc3)n(C[C@H](O)C(F)(F)F)c2=O)nn1-c1c(Cl)cncc1Cl = 8.38

[P] C[C@H](O)c1nc(Cn2nc(-c3ccc(Cl)cc3)n(C[C@H](O)C(F)(F)F)c2=O)nn1-c1ncccc1C(F)(F)F
[Q] C[C@@H](O)c1nc(Cn2nc(-c3ccc(Cl)cc3)n(C[C@H](O)C(F)(F)F)c2=O)nn1-c1ncccc1F
Problem: Kindly identify the item with the lower pIC50 figure among these two: P and Q // caller expects the label of the chosen entry
Solution: Q
(Q: 8.22, P: 8.48)
